src = PubChem BioAssay (NCI)

Parameter: TGI. Scope: all listed entries.
# Tested on: SN12C renal
# Test protocol: NCI tumour cell line growth inhibition, 48 h

Example results:
COc1cc(/C=C\c2cc(/C=C\c3ccc(O)c(OC)c3)n(C(=O)COc3ccc(Cl)cc3Cl)n2)ccc1O ... 65.8 µM
O=C1C2=Cc3ccccc3OC2(O)Oc2cc(O)cc(O)c21 (stereo unspecified) ... > 100 µM
C/C=C/C1(C)/C(=N\O)C(C)(CCC)C(=O)N1O (stereo unspecified) ... > 100 µM
CC(=O)Oc1ccc2c3c1[C@H]1O[C@H]1c1cccc(c1-3)[C@@H]1O[C@H]21 ... 7.55 µM
C(=C\c1cc(CCc2nc3ccccc3[nH]2)[nH]n1)/c1ccccc1 ... > 100 µM
COc1ccc(/C=C/C(=O)c2cc(C(=O)O)c(OC)cc2OC)cc1OC ... > 100 µM
C[C@H](Nc1ccc2c(c1)OCCn1cc(N3C(=O)OC[C@H]3C(F)F)nc1-2)C(N)=O ... > 100 µM
Cc1cccc(-n2c(C)nc3ccc(NC(=S)Nc4ccccc4)cc3c2=O)c1 ... > 100 µM
COCOCCCCCO[Si](C)(C)C(C)(C)C ... 32 µM
COc1cc(O)c2c3c(ccnc13)-c1ccccc1N2 ... 20 µM

Proceeding to the next compound to report its TGI.
Request: Recorded TGI for Cc1ccc(NC(=O)CC(=O)n2nc(-c3ccccc3)c(N=Nc3ccccc3[N+](=O)[O-])c2-c2ccccc2)cc1 , please?
Response: > 100 µM

====

Parameter: TGI. Scope: all listed entries.
# Tested on: RXF 393 renal
# Test protocol: NCI tumour cell line growth inhibition, 48 h

Example results:
O=c1cc(NNc2ccc(F)cc2)[nH]c(=O)[nH]1 ... 34.3 µM
CC(CCc1ccccc1)NCC(O)n1c(/N=N/N(C)C)nc2c1c(=O)n(C)c(=O)n2C (stereo not drawn) ... > 100 µM

Proceeding to the next molecule to report its TGI.
Request: Recorded TGI for C/C(=N/NC(=O)c1ccccc1O)c1ccc(/C(C)=N\NC(=O)c2ccccc2O)c2nc3cc(C)c(C)cc3nc12 , please?
Response: > 100 µM

====

# Tested on: SF-268 CNS
# Test protocol: NCI tumour cell line growth inhibition, 48 h
Measured metric: log10(TGI) (log10 of the value in µM)
Remember, log10 of TGI, in µM.

COc1ccc(-c2cc(-c3ccccc3)nc(N)c2-c2ccc3ccccc3c2)cc1 ... 0.96
CC1OC(OC2C(O)COC(OC3C(C)OC(OC4C(OC(=O)[C@]56CCC(C)(C)C[C@@H]5C5=CCC7[C@@]8(C)C[C@H](O)[C@H](OC9OC(CO)C(O)C(O)C9O)[C@@](C)(CO)[C@@H]8CC[C@@]7(C)[C@]5(C)CC6)OCC(O)C4O)C(O)C3OC3OCC(O)C(O)C3O)C2O)C(O)C(O)C1O (stereo partly drawn) ... 1.68
COc1ccc(SS(=O)(=O)c2ccc(OC)cc2)cc1 ... 1.52
COC(=O)c1ccc2[nH]c(O)c(C(=Nc3ccc(N(C)C(=O)CN4CCN(C)CC4)cc3)c3cccc(OC)c3)c2c1 ... 0.61
CCOC(=O)c1cnc2c(C)cc(C)cc2c1NCCCN(C)C ... 1.38

Proceeding to the next compound to report its log10(TGI).
Request: // map Cc1cc(Cl)ccc1Nc1nc(C(F)(F)F)ccc1C(=O)N/N=C/c1cccc(O)c1 to recorded log10(TGI) (system: SF-268 CNS)
Response: 1.09

====

# System: NCI-H226 lung
# Test protocol: NCI tumour cell line growth inhibition, 48 h
Parameter: TGI. Scope: all listed entries.

Example results:
N#Cc1cc2c(cc1Cl)SC(=Nc1ccccc1)N(S(=O)(=O)c1ccc(Cl)cc1)S2(=O)=O ... 42.9 µM
COC(=O)C1CC2c3c(c4ccccc4n3C)CC(C1=O)N2C (configuration not stated) ... > 100 µM
O=C(O)C1Cc2c([nH]c3ccccc23)C(CCCCO)N1 (configuration not stated) ... > 100 µM
CN(C)c1ccc2nc3ccc(=[N+](C)C)c([N+](=O)[O-])c-3sc2c1 ... 22.4 µM
COc1ccc(SS(=O)(=O)c2ccc(OC)cc2)cc1 ... 50.1 µM

Request: // map CCCCCOc1ccc(Nc2c(O)c3c(c(O)c2Cl)C(=O)C=CC3=O)cc1 to recorded TGI (system: NCI-H226 lung)
Response: > 10 µM

Request: Same for Oc1cc2ccccc2cc1-c1n[nH]c(=S)n1CCc1ccccc1
Response: 55.3 µM

====

Parameter: TGI. Scope: all listed entries.
# Test system: NCI-H226 lung
# Test protocol: NCI tumour cell line growth inhibition, 48 h

COP(=O)(OC)/C(=C\C1=CN(C(c2ccccc2)(c2ccccc2)c2ccccc2)CN1)NC=O ... 39.5 µM
OCCOCCO/N=C1\C(c2c(O)[nH]c3ccccc23)=Nc2ccccc21 ... 10.3 µM
CC(=O)N(C(C)=O)c1c(N)n(C)c(=O)[nH]c1=O ... > 100 µM
COc1ccc(-c2nc(S(=O)(=O)c3ccccc3)c(S(=O)CC(=O)N3CCC(C)CC3)o2)cc1 (stereo not given) ... 6.25 µM
CN(C)C(=S)NC(=S)Nc1ccc2ccccc2c1 ... 31.5 µM
Cn1ccnc1CCc1ccc(Cl)cc1Cl ... > 100 µM

Request: Recorded TGI for COCC1OC(OC2OCC3OC4(OCC(O)(C(C)OC)C5OCOC54)OC3C2OC)C(OC)C(O)C1OC1OC(C)C(OC)C(OC2OC(C)C3OC4(CC(O)C(OC5CC(OC6CC(C)([N+](=O)[O-])C(OC)C(C)O6)C(OC(=O)c6c(C)c(Cl)c(O)c(Cl)c6OC)C(C)O5)C(C)O4)OC3(C)C2O)C1O (stereo not given) , please?
Response: > 100 µM

Request: Same for NC12CC3C4CC5(N)CC3C(C1)C(C5)C4C2
Response: > 100 µM

Request: Same for N#C/C(=C\c1ccc2c(c1)OCO2)n1nnc2ccccc21
Response: 16 µM

Request: Same for CN1CCCN(C)CCCN(C)CCCN(C)CCC1
Response: > 100 µM

Request: Same for O=c1cccccc1NCCCCCCCCNc1cccccc1=O
Response: > 100 µM

====

Parameter: TGI. Scope: all listed entries.
# Test system: NCI-H226 lung
# Test protocol: NCI tumour cell line growth inhibition, 48 h

Example results:
O=C(NC(N1CCN(c2cc3c(cc2F)c(=O)c(C(=O)O)cn3C2CC2)CC1)(C(F)(F)F)C(F)(F)F)c1ccccc1 ... > 100 µM
CC(=O)/C(N=Nc1ccc(-n2c(C)nc3ccccc3c2=O)cc1)=C(/C)O ... > 100 µM

Request: Recorded TGI for CC(C)(O)C1CC[C@]2(C)CC[C@]3(C)[C@H](CC[C@@H]4[C@@]5(C)CC[C@H](O)C(C)(C)[C@@H]5CC[C@]43C)[C@@H]12 (some centres undefined) , please?
Response: > 100 µM

Request: Same for C/C=C/C1(C)/C(=N\O)C(C)(CCC)C(=O)N1O (centres undefined)
Response: > 100 µM

Request: Same for N[C@@H]1CCCC[C@@H]1N.O=P([O-])([O-])CNCP(=O)([O-])[O-].[Pt+2]
Response: > 100 µM

Request: Same for CC1=NOC(C)(O)/C1=N/O (centres undefined)
Response: > 100 µM

Request: Same for S=C(NCCc1ccccn1)c1nc[nH]c1C(=S)NCCc1ccccn1
Response: > 100 µM

Request: Same for O=C1CC(Cl)c2c1csc2Br (centres undefined)
Response: 76.9 µM

Request: Same for COc1ccc(C(=O)N2N=C(c3ccc(Br)cc3)CC2c2cn(-c3ccccc3)nc2-c2ccccc2)cc1 (centres undefined)
Response: > 50 µM
